B1: tRNA (parent)
chain: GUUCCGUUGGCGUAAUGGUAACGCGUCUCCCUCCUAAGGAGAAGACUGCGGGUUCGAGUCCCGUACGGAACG

Variants of: B1
Test: yeast fitness relative to wild type (ratio to wild type); higher = fitter; tRNA-Arg(CCU), competitive growth, 37 C, YPD
This sample holds only a part of the variants without activity.
Let's look at some variants and their measured yeast fitness.
// keep it numeric: no unit symbol after the value

C22G U32A C60A A69C: 0.619

Could you tell me which yeast fitness is on file for G9A C27G ?
0.757

Could you tell me which yeast fitness is on file for U8C G12A ?
0.714

Could you tell me which yeast fitness is on file for C5U A14C A45C A65C ?
0.561

Could you tell me which yeast fitness is on file for C33U U47A ?
0.829

Could you tell me which yeast fitness is on file for A15G C62G C66U ?
0.535

Could you tell me which yeast fitness is on file for A20G C29A A65C ?
0.544

Could you tell me which yeast fitness is on file for A15G U47G ?
0.782

Could you tell me which yeast fitness is on file for G56U G58A ?
0.589

Could you tell me which yeast fitness is on file for U13C G52A A69U ?
0.689

Could you tell me which yeast fitness is on file for A15C C46U G50A ?
0.711

Could you tell me which yeast fitness is on file for U16A C22U G48A ?
0.631

Could you tell me which yeast fitness is on file for C22A A36G G41A ?
0.548

Could you tell me which yeast fitness is on file for U3A A15C ?
0.659

Could you tell me which yeast fitness is on file for G6A A15G A65U ?
0.607

Could you tell me which yeast fitness is on file for C24G C46A ?
0.937

Could you tell me which yeast fitness is on file for A15G A43G ?
0.975

Could you tell me which yeast fitness is on file for C5U U19C A43U ?
1.09
